The origin of these recorded values is patent US10934303B2.

Exercise: state measured CYP inhibition (% of control) 1A2 for each of the molecules provided.
target: CYP1A2 (Homo sapiens (Human), UniProt P05177); assay: Cytochrome P450 activity inhibition, CYP1A2; assay type: in vitro ADME; conditions: 10 μM, human liver microsomes, Phenacetin substrate
Sequence (P05177 whole entry): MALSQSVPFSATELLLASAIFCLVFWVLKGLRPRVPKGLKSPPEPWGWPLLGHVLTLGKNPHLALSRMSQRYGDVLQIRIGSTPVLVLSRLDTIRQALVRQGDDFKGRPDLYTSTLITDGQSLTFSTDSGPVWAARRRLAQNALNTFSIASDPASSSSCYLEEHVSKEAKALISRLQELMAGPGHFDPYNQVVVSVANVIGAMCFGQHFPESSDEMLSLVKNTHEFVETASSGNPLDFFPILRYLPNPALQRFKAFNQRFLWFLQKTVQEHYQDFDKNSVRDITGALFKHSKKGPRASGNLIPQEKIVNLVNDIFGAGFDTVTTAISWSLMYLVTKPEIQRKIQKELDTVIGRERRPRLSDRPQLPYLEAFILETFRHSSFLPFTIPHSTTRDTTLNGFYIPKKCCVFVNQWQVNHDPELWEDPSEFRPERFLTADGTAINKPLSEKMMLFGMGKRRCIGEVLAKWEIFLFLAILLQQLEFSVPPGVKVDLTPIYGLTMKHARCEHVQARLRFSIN

MOLECULE	CYP inhibition (% of control) 1A2
Cc1ccc(/C(=C(\CCCO)c2ccccc2)c2ccc(C3CCNCC3)cc2)cc1 [Compound 20k]	79.3 % of control
CC(C)N1CCC(c2ccc(/C(=C(/CCCO)c3ccccc3)c3cccc(O)c3)cc2)CC1 [Compound 22h]	>100 % of control
Cc1ccc(/C(=C(\CCCO)c2ccccc2)c2ccc(N3CCN(C(C)C)CC3)cc2)cc1 [Compound 18b]	89.8 % of control

// batch mode: one CYP inhibition (% of control) 1A2 value per listed entry
1. OCCC/C(=C(\c1ccc(O)cc1)c1ccc(N2CCN(C3CCC3)CC2)cc1)c1ccccc1 [Compound 22q]
2. CC(C)N1CCN(c2ccc(/C(=C(/CCCO)c3ccccc3)c3ccc(N)cc3)cc2)CC1 [Compound 26b]
3. CCN1CCN(c2ccc(/C(=C(/CCCO)c3ccccc3)c3ccc(C)cc3)cc2)CC1 [Compound 18j]
4. CCN1CCC(c2ccc(C(=C(CCCO)c3ccccc3)c3cccc(O)c3)cc2)CC1 [Compound 22ae]
5. CN1CCN(c2ccc(/C(=C(/CCCO)c3ccccc3)c3ccc(O)cc3)cc2)CC1 [Compound 18d]
6. CC(C)N1CCN(c2ccc(/C(=C(/CCCO)c3ccccc3)c3ccc(Br)cc3)cc2)CC1 [Compound 18e]
7. CC(C)(C)OC(=O)N1CC(c2ccc(/C(=C(/CCCO)c3ccccc3)c3ccc(O)cc3)cc2)C1 [Compound 18t]

1: 99.9 % of control; 2: 99.2 % of control; 3: >100 % of control; 4: 59.4 % of control; 5: 88 % of control; 6: >100 % of control; 7: 100 % of control

// batch mode: one CYP inhibition (% of control) 1A2 value per listed entry
1. OCCC/C(=C(\c1ccc(Br)cc1)c1ccc(N2CCNCC2)cc1)c1ccccc1 [Compound 20a]
2. CC(C)N1CCN(c2ccc(C(=C(CCCO)c3ccccc3)c3ccc(O)cc3)cc2)CC1 [Compound 18a]
3. OCCC/C(=C(\c1ccc(O)cc1)c1ccc(N2CCN(C3CCCC3)CC2)cc1)c1ccccc1 [Compound 22n]
4. CN1CCN(c2ccc(/C(=C(/CCCO)c3ccccc3)c3ccc(N)cc3)cc2)CC1 [Compound 26a]
5. OCCC/C(=C(\c1ccc(O)cc1)c1ccc(OCCN2C[C@H]3C[C@H]3[C@H]2CO)cc1)c1ccccc1 [Compound 38d]

1. 85 % of control
2. 88 % of control
3. 99 % of control
4. >100 % of control
5. 79.2 % of control

----------
assay: in vivo; type: in vivo; conditions: rat, PO, 10 mg/kg
OBSERVATION TYPE: Tmax (h)
One number for each entry, in h.

COMPOUND	REPORTED VALUE
CC(C)N1CCN(c2ccc(C(=C(CCCO)c3ccccc3)c3ccc(O)cc3)cc2)CC1 [Compound 18a]	1.1
OCCC/C(=C(\c1ccc(O)cc1)c1ccc(C2CCN(C3CC3)CC2)cc1)c1ccccc1 [Compound 22i]	2.2
Cc1ccc(/C(=C(\CCCO)c2ccccc2)c2ccc(N3CCN(C(C)C)CC3)cc2)cc1 [Compound 18b]	0.6

Suppose we examine the compound CC(C)N1CCC(c2ccc(/C(=C(/CCCO)c3ccccc3)c3cccc(O)c3)cc2)CC1 [Compound 22m] ; what Tmax value has been reported? 2.4
